Test: Portal level in rat at 3 mg/kg, po after 1 hr
Format: ADME, organism-based
Design: dose 3 mg/kg, route oral
Details: portal vein (blood or plasma not stated), read-out: Activity
assay-metric: concentration at 1 h

What value of measured concentration at 1 h is listed for O=C(NCc1cc(C(F)(F)F)cc(C(F)(F)F)c1)[C@@H](NCCN1CCCCC1)c1ccsc1 ?
> 300 ng/mL

###

Molecular target: UniProt:P41597
Test: Displacement of [125I]MCP1 from human CCR2 expressed in CHO cells
Assay type: cell-based
assay-metric: IC50 (nM)
Give a bare numeral; the unit nM is implied.

[[record]]
compound = "CN(C)CCN[C@@H](C(=O)NCc1cc(C(F)(F)F)cc(C(F)(F)F)c1)c1cccs1"
reported_measurement = 865

[[record]]
compound = "Cc1ccc2c(c1)C1(CCN(CCc3coc(-c4ccc(F)cc4)n3)CC1)OC(=O)N2"
reported_measurement = 32

[[record]]
compound = "O=C(NCc1cc(C(F)(F)F)cc(C(F)(F)F)c1)C(NCCN1CCOCC1)c1ccccc1 (centres undefined)"
reported_measurement = 575


Would you kindly share the measured IC50 for CN(C)CCNC(C(=O)NCc1cc(C(F)(F)F)cc(C(F)(F)F)c1)c1ccc(Cl)cc1 (centres undefined) ?
1100
